Below, each entry is listed alongside its reported TD50.
# Test system: rodent lifetime carcinogenesis bioassay, tumor incidence TD50
# assayComment: carcinogenic potency in animals, long-term in vivo studies, CPDB compilation (AID 1745844)
# measurementParameters: mouse; strain B6AKF1; males; oral dosing; site: lung; lesion: adenoma; dosed 76 weeks; study length 76 weeks
The source made the active and inactive calls. The rule behind the calls is not given here.

Take a look at these entries with their results.
{"compound": "O=[N+]([O-])c1cc([N+](=O)[O-])c(Cl)c(Cl)c1Cl", "observedValue": "49 mg/kg/day"}
{"compound": "O=C1C2CC=CCC2C(=O)N1SC(Cl)(Cl)Cl (stereo not drawn)", "observedValue": "3620 mg/kg/day (inactive)"}
{"compound": "Clc1ccc(C(c2ccc(Cl)cc2)C(Cl)Cl)cc1", "observedValue": "82.9 mg/kg/day"}

Sure, the documented TD50 for CCN(CC)C(=S)S is 155 mg/kg/day

# TD50 (compound: CC=CC(=O)Oc1c(C(C)CCCCCC)cc([N+](=O)[O-])cc1[N+](=O)[O-] (stereo not drawn) ) is 19.1 mg/kg/day (inactive)

// recorded TD50 for COC(C(=O)O)c1ccccc1 (stereo not drawn) : 157 mg/kg/day (inactive)

The measured TD50 associated with CN(C)C(=O)Nc1ccc(Cl)c(Cl)c1 reads 437 mg/kg/day (inactive)

Note to self: TD50 recorded for S=C([S-])NCCNC(=S)[S-].[Mn+2] was 54.9 mg/kg/day (inactive)

Entry O=S(=O)(Oc1ccc(Cl)cc1Cl)c1ccccc1 ; TD50 = 866 mg/kg/day (inactive)

The compound CC(C)Oc1ccc(Nc2ccccc2)cc1 showed TD50 equal to 2180 mg/kg/day (inactive)

Looking up Cc1cc(OC(=O)N(C)C)n(C(C)C)n1 , I found its TD50 recorded as 0.0147 mg/kg/day (inactive)

TD50 recorded for this compound, c1ccc2sc(SSc3nc4ccccc4s3)nc2c1 , is 1130 mg/kg/day (inactive)

Form: compound = CCCCN(CCCC)C(=S)[S-].CCCCN(CCCC)C(=S)[S-].[Ni+2] ; TD50 = 0.153 mg/kg/day (inactive)
